Data credit: the supplement of paper PMC10567573

// reported protein stability index per item
B1: SPRY1 (parent)
chain: WIHRPGCRCKNSNTVYCKLESCPS

Variants of: B1
experiment summary: protein stability index of a GFP-peptide fusion (GPS, HEK-293T) (PSI 1-6); higher = more stable;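 also: lentivirally expressed fusions sorted by FACS into six bins by GFP to DsRed ratio, PSI derived from sequencing read proportions per bin multiplied by bin number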
condition details: c terminus: a fixed tail appended
Form rule: numeric answer, no unit written next to it.

Below, each entry is followed by its recorded protein stability index result.
R8H	2.63
R8G	2.81
I2E	3.89

What value of measured protein stability index is listed for T14M ?
1.97

Now try L19P .
2.01

Now try L19I .
1.76

Now try T14G .
2.8

Now try C22H .
2.01
